Every entry's value here was drawn from paper PMC7819943.

# test.system: OsWRKY34 (Oryza sativa, UniProt Q0JBA9 1-250)
# Sequence (Q0JBA9 entry or part of it): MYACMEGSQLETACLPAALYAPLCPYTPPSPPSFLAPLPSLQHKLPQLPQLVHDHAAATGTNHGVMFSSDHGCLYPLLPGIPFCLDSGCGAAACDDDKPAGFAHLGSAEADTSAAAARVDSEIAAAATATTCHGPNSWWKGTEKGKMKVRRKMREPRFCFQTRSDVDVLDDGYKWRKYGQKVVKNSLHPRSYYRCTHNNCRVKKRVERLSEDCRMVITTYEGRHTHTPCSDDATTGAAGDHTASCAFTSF
# procedure.details: protein-binding microarray (RPBM); PBS, 2% BSA, 51.3 ng/ul salmon testes DNA, 50 uM zinc acetate, 200 nM TF, 25 C, 1 h; high values mean tight binding
# study.conditions: protein: recombinant; tags: N-terminal polyhistidine and DsRed monomer fusion (pET32a); label: CyDye5-dUTP incorporated in the synthesized complementary strand; 3' TTTTT single-stranded linker to array surface; dsDNA, one strand shown
Over roughly 68,000 sequences, “fluorescence intensity (a.u.)” has its median near 9,100; the highest 2% begin near 16,000. The list comes from a sample in which the highest values are over-represented; it also holds close analogues and randomly drawn sequences.
attribute.measured: binding signal

GTCATTGGTGGTTTATATTGTTTGGCTTTTTTCCGGATTACGGAGTCACCTAGTGCAG	18500 fluorescence intensity (a.u.)
CGCTTCCTGTTGTGATTATGTAATCTTGTATTCTTGTTGACGGAGTCACCTAGTGCAG	11600 fluorescence intensity (a.u.)
TTTTGGATTTTGTTTCATTTTTTTTACATGCATTGGATTACGGAGTCACCTAGTGCAG	8120 fluorescence intensity (a.u.)
GTCTTTTGATGCGACGCGATGTGACTCGCCCGACCCAACTCGGAGTCACCTAGTGCAG	8940 fluorescence intensity (a.u.)
TTCCGCGTCAACCACCACCGCGCCGGCGTGCGCCTCCGCGCGGAGTCACCTAGTGCAG	10300 fluorescence intensity (a.u.)
GTCATCTTTGTTTGAGTCGGTTTTTAATTTTGTTTGCTTTCGGAGTCACCTAGTGCAG	17700 fluorescence intensity (a.u.)
TCCCTTCCCTGTTCCTGGCGACGTGTCACCTTCTTATTCGCGGAGTCACCTAGTGCAG	8050 fluorescence intensity (a.u.)

###

In this section, each of the sequences is paired with its reported binding signal.
# test.system: OsWRKY34 (Oryza sativa, UniProt Q0JBA9 1-250)
# procedure.details: protein-binding microarray (RPBM); PBS, 2% BSA, 51.3 ng/ul salmon testes DNA, 50 uM zinc acetate, 200 nM TF, 25 C, 1 h; high values mean tight binding
# study.conditions: protein: recombinant; tags: N-terminal polyhistidine and DsRed monomer fusion (pET32a); label: CyDye5-dUTP incorporated in the synthesized complementary strand; 3' TTTTT single-stranded linker to array surface; dsDNA, one strand shown
Whole data set: some 68,000 sequences, median “fluorescence intensity (a.u.)” near 9,100, cut for the highest 2% near 16,000. The list comes from a sample in which the highest values are over-represented; it also holds close analogues and randomly drawn sequences.
attribute.measured: binding signal

TTCGTTTTGACTTTTTTCTTAGTAAAACTTTTATGTTTGACGGAGTCACCTAGTGCAG	11600 fluorescence intensity (a.u.)
TTAATTATTTCTTGGTATTTGGGTTAAGGGTGGTTGTGCCCGGAGTCACCTAGTGCAG	12600 fluorescence intensity (a.u.)
ATGTTGACTCGTTTGCCTGTGTTCCTCTTGCTGCTATTCACGGAGTCACCTAGTGCAG	19200 fluorescence intensity (a.u.)
TCCTCATCTTGTGCTCTCAAGTGTTTTAAGTGCTCTCTTTCGGAGTCACCTAGTGCAG	10500 fluorescence intensity (a.u.)
TGTGGAGTTTGAGGATTGCACAATAATCTCAGGGGCGGGCCGGAGTCACCTAGTGCAG	8590 fluorescence intensity (a.u.)
CCGTATTTTAATGTATATGACACCGTTGACTTTTTGACCACGGAGTCACCTAGTGCAG	40800 fluorescence intensity (a.u.)
ACGCGGGGATGGATGATGGTGGTGGCGGCGAGGGGATGATCGGAGTCACCTAGTGCAG	9170 fluorescence intensity (a.u.)
TTCCACGGTTTTCTTTTTTCGGTTTTTATCTTTTCTTTTTCGGAGTCACCTAGTGCAG	13200 fluorescence intensity (a.u.)
TCTCTTTCTTTCCTTAACTCTCTTTCTCTACTCTCCACTCCGGAGTCACCTAGTGCAG	9580 fluorescence intensity (a.u.)
GTGGGTCCACTTGCTACACATACCACCCCACTTAAACTTTCGGAGTCACCTAGTGCAG	8640 fluorescence intensity (a.u.)
TTTTGAGTGCTTTTATTTCTTTATTTCTTTATTTCTTTATCGGAGTCACCTAGTGCAG	9320 fluorescence intensity (a.u.)
GATTGGTTGTTTGTTCTGTTTTGGACATGCTTGTTAATTACGGAGTCACCTAGTGCAG	17100 fluorescence intensity (a.u.)
CTCCATTCTTGTTTGTTCCTTCTTTGCTTTCAGCTGCTTTCGGAGTCACCTAGTGCAG	15000 fluorescence intensity (a.u.)

###

# test.system: OsWRKY34 (Oryza sativa, UniProt Q0JBA9 1-250)
# procedure.details: protein-binding microarray (RPBM); PBS, 2% BSA, 51.3 ng/ul salmon testes DNA, 50 uM zinc acetate, 200 nM TF, 25 C, 1 h; high values mean tight binding
# study.conditions: protein: recombinant; tags: N-terminal polyhistidine and DsRed monomer fusion (pET32a); label: CyDye5-dUTP incorporated in the synthesized complementary strand; 3' TTTTT single-stranded linker to array surface; dsDNA, one strand shown
The full ranking holds about 68,000 sequences; the median of “fluorescence intensity (a.u.)” is about 9,100, and the highest 2% start at about 16,000. The entries come from a sample that favours the highest values as a whole.
attribute.measured: binding signal

TTCTTCGGTGGTGGTGGTGGTGGGATGGAAGAGGAGGAAGCGGAGTCACCTAGTGCAG	25800 fluorescence intensity (a.u.)
TATATGTAAGCTACTTTTGTCCTATACATAAATTACTTTTCGGAGTCACCTAGTGCAG	8580 fluorescence intensity (a.u.)
TGAAGAGGTGAGTGTTTTAGGGTTTTGGTTGGGGTTTTGACGGAGTCACCTAGTGCAG	14600 fluorescence intensity (a.u.)

###

# test.system: OsWRKY34 (Oryza sativa, UniProt Q0JBA9 1-250)
# procedure.details: protein-binding microarray (RPBM); PBS, 2% BSA, 51.3 ng/ul salmon testes DNA, 50 uM zinc acetate, 200 nM TF, 25 C, 1 h; high values mean tight binding
# study.conditions: protein: recombinant; tags: N-terminal polyhistidine and DsRed monomer fusion (pET32a); label: CyDye5-dUTP incorporated in the synthesized complementary strand; 3' TTTTT single-stranded linker to array surface; dsDNA, one strand shown
Over roughly 68,000 sequences, “fluorescence intensity (a.u.)” has its median near 9,100; the highest 2% begin near 16,000. Many of the other results were omitted from the sample, so the highest values are more common in it than they were.
In this section, each of the sequences is paired with its reported binding signal.
attribute.measured: binding signal

TCCGCCGCCGTCTCCGCCGCCTCCAGCCATCGATCCCGGCCGGAGTCACCTAGTGCAG	8250 fluorescence intensity (a.u.)
CAACGAGGAGCGATGCATATCTAGCAGTTTTGTTTTTCATCGGAGTCACCTAGTGCAG	8420 fluorescence intensity (a.u.)
TCTTGGCGCTGTCGGTGTGTGGGTGGCGTTATATTTTTTTCGGAGTCACCTAGTGCAG	9900 fluorescence intensity (a.u.)

###

# test.system: OsWRKY34 (Oryza sativa, UniProt Q0JBA9 1-250)
# procedure.details: protein-binding microarray (RPBM); PBS, 2% BSA, 51.3 ng/ul salmon testes DNA, 50 uM zinc acetate, 200 nM TF, 25 C, 1 h; high values mean tight binding
# study.conditions: protein: recombinant; tags: N-terminal polyhistidine and DsRed monomer fusion (pET32a); label: CyDye5-dUTP incorporated in the synthesized complementary strand; 3' TTTTT single-stranded linker to array surface; dsDNA, one strand shown
Whole data set: some 68,000 sequences, median “fluorescence intensity (a.u.)” near 9,100, cut for the highest 2% near 16,000. The sample holds the highest values, similar sequences and a random draw of the others, so the mix is not that of the screen.
attribute.measured: binding signal

ACACCATGTTTCCACATTGCATTTCCTTCTGTTTTTTCTTCGGAGTCACCTAGTGCAG	17600 fluorescence intensity (a.u.)
TGTTTGACGCCGTTGACTTTTTAACACATGTTTGACCGTTCGGAGTCACCTAGTGCAG	41700 fluorescence intensity (a.u.)
TTGTTCTTTTTGGTCTGGTTTTTTTGTGGTTTCTTGATTGCGGAGTCACCTAGTGCAG	9010 fluorescence intensity (a.u.)
